I'd be grateful if you could share measured Selectivity for these entries.
Experimental Target: pre-pro-human insulin

Protein: trypsin variant SEQ ID NO: 104 (protein) IVGGYTCAANSIPYQVSLNSGSHRCGGSLINSQWVVSAAHCYKSRIQVRLGEHNIHVLEGNEQFINAAKIITHPNFNPNTLDNDIMLIKLSSPATLNSNVATVSLPTSCAAAGTECLISGWGNTCSSGSSMPSLLQCLKAPVLSDSSCKSSYPGQITGNMICVGFLEGGADACQGDSGGPVVCNGQLQGIVSSGYGCAQKNKPGVYTKVCNYVNWIQQTIAAN
Selectivity: >90%

# evaluate next
Find the recorded Selectivity belonging to trypsin variant SEQ ID NO: 118 (protein) IVGGYTCAANSIPYQVSLNSGSHRCGGSLINSQWVVSAAHCYKPRIQVRLGEHNIHVLEGNEQFINAAKIITHPNFNGNTLDNDIMLIKLSSPATLNSHVATVSLPTSCAAAGTECLISGWGNTASSGSSMPSLLQCLKAPVLSDSSCKSSYPGQITGNMICVGFLEGGADACQGDSGGPVVCNGQLQGIVSSGYGCAQKNKPGVYTKVCNYVNWIQQTIAAN and report it. >90%

The values you see were collected from patent US20230303994.
